Catalogue of T/C readings, one per entry.
- Test system: L1210 leukemia ip in BDF1 mice, survival T/C
- Procedure text: NCI In Vivo Anticancer Drug Screen. Data for tumor model L1210 Leukemia (intraperitoneal) in B6D2F1 (BDF1) mice
- Details: endpoint: mean survival time; dose: 150.0 mg/kg/injection; schedule: Q01DX001 (ip); vehicle: other; higher = longer survival
Toxic doses and inconclusive results are not listed.

Known T/C results, listed for orientation:
Cc1cc(C(=O)O)c(C(=O)O)c(Cl)n1; 95 % of control
C=CCO[Si](C=C)(OCC=C)OCC=C; 95 % of control
Clc1ccc2nc3nc(-c4ccccc4)c(-c4ccccc4)nc3nc2c1; 98 % of control

With those in mind, consider the next molecule.
Entry CC(=O)OC(C)CC[P+](c1ccccc1)(c1ccccc1)c1ccccc1 (centres undefined) : T/C on L1210 leukemia ip in BDF1 mice, survival T/C = 106 % of control

----------
Catalogue of T/C readings, one per entry.
- Test system: L1210 leukemia ip in BDF1 mice, survival T/C
- Procedure text: NCI In Vivo Anticancer Drug Screen. Data for tumor model L1210 Leukemia (intraperitoneal) in B6D2F1 (BDF1) mice
- Details: endpoint: mean survival time; dose: 50.0 mg/kg/injection; schedule: Q04DX003 (ip); vehicle: Klucel (hydroxypropylcellulose) (HPC); higher = longer survival
Inconclusive results and toxic doses are left out.

Memo: COC(=O)Nc1cccc2c1-c1ccccc1C2=O , reported T/C: 95 % of control

Memo: C[N+](C)(C)CC1(COC(=O)C(O)(c2ccccc2)c2ccccc2)CCC1 , reported T/C: 86 % of control

Memo: CCNC(C)(C)C(Cl)c1ccc(Cl)s1 (stereo unspecified) , reported T/C: 97 % of control

Memo: Clc1cc(C(Cl)(Cl)Cl)c(Cl)cc1C(Cl)(Cl)Cl , reported T/C: 104 % of control

Memo: O=c1[nH]c2ccccc2n1C1CCN(CCCC(c2ccc(F)cc2)c2ccc(F)cc2)CC1 , reported T/C: 104 % of control

Memo: Cc1cccc(N=Cc2cccc([N+](=O)[O-])c2)c1 , reported T/C: 98 % of control

Memo: O=S(=O)(F)c1cc(Cl)c(S)cc1Cl , reported T/C: 96 % of control

Memo: CC(=O)C1C=NCC(C)(C)N=CC(C(C)=O)C(C)=NCCCN=C1C.[Ni] (stereo unspecified) , reported T/C: 102 % of control

Memo: Nc1nc(Br)c(Br)nc1C(=O)O , reported T/C: 103 % of control

Memo: CC(C)(C)OC(=O)NNC(=O)c1ccc([N+](=O)[O-])cc1 , reported T/C: 96 % of control

Memo: Brc1ccc(C2=CSC3=NCCN23)cc1 , reported T/C: 96 % of control

----------
- Tested on: L1210 leukemia ip in BDF1 mice, survival T/C
- Procedure text: NCI In Vivo Anticancer Drug Screen. Data for tumor model L1210 Leukemia (intraperitoneal) in B6D2F1 (BDF1) mice
- Details: endpoint: mean survival time; dose: 25.0 mg/kg/injection; schedule: Q01DX009 (ip); vehicle: Klucel (hydroxypropylcellulose) (HPC); higher = longer survival
Inconclusive results and toxic doses are left out.
Catalogue of T/C readings, one per entry.

Known T/C results, listed for orientation:
CNC(=S)c1ccc(Cl)cc1; 94 % of control
CCN(CC)CCOc1ccccc1-c1nc2ccccc2s1; 104 % of control
O=C1OC(CN2CCOCC2)CN1/N=C/c1ccc([N+](=O)[O-])o1 (stereo not given); 104 % of control
CCN1C(C)C1C(C)C (stereo not given); 105 % of control
CCc1ccccc1NC(=O)NCc1ccc(C)c(C)c1; 98 % of control

Memo: Cc1cc(=O)oc2cc(OC(=O)Nc3cccc(Cl)c3Cl)ccc12 , reported T/C: 89 % of control

Memo: COc1ccc(NC(=O)Nc2cc(Cl)ccc2OC)cc1 , reported T/C: 93 % of control

Memo: O=C(CN1CCCCC1)c1ccc(/C=C/c2ccc(Cl)cc2)cc1 , reported T/C: 97 % of control

----------
- Tested on: L1210 leukemia ip in BDF1 mice, survival T/C
- Procedure text: NCI In Vivo Anticancer Drug Screen. Data for tumor model L1210 Leukemia (intraperitoneal) in B6D2F1 (BDF1) mice
- Details: endpoint: mean survival time; dose: 30.0 mg/kg/injection; schedule: Q01DX Z (ip); vehicle: saline; higher = longer survival
Inconclusive results and toxic doses are left out.
Catalogue of T/C readings, one per entry.

Entry C=NN=C(N)N : T/C on L1210 leukemia ip in BDF1 mice, survival T/C = 105 % of control

Entry Cc1cc(C(=O)Nc2ccc(NC3=NCCN3)cc2)c(C)cc1C(=O)Nc1ccc(NC2=NCCN2)cc1 : T/C on L1210 leukemia ip in BDF1 mice, survival T/C = 103 % of control

Entry NCCc1nc2ccccc2[nH]1 : T/C on L1210 leukemia ip in BDF1 mice, survival T/C = 98 % of control

Entry O=C(Nc1ccc(S(=O)(=O)O)cc1)c1ccc(C(=O)Nc2ccc(S(=O)(=O)O)cc2)cc1 : T/C on L1210 leukemia ip in BDF1 mice, survival T/C = 91 % of control

----------
Catalogue of T/C readings, one per entry.
- System: L1210 leukemia ip in BDF1 mice, survival T/C
- Procedure text: NCI In Vivo Anticancer Drug Screen. Data for tumor model L1210 Leukemia (intraperitoneal) in B6D2F1 (BDF1) mice
- Details: endpoint: mean survival time; dose: 25.0 mg/kg/injection; schedule: Q01DX001 (ip); vehicle: Klucel (hydroxypropylcellulose) (HPC); higher = longer survival
Toxic doses and inconclusive results are not listed.

Memo: C=CCc1cnc(C(F)(F)F)[nH]c1=O , reported T/C: 93 % of control

Memo: c1ccc(C2CC([P+](c3ccccc3)(c3ccccc3)c3ccccc3)=NN2)cc1 (centres undefined) , reported T/C: 104 % of control

Memo: Nc1ncnc(Nc2ccccc2[N+](=O)[O-])c1[N+](=O)[O-] , reported T/C: 87 % of control

Memo: CCCNC(=O)Sc1ccc(C(C)(C)C)cc1 , reported T/C: 91 % of control

----------
- Test system: L1210 leukemia ip in BDF1 mice, survival T/C
- Procedure text: NCI In Vivo Anticancer Drug Screen. Data for tumor model L1210 Leukemia (intraperitoneal) in B6D2F1 (BDF1) mice
- Details: endpoint: mean survival time; dose: 400.0 mg/kg/injection; schedule: Q01DX009 (ip); vehicle: saline with Tween-80; higher = longer survival
Toxic doses and inconclusive results are not listed.
Catalogue of T/C readings, one per entry.

COC(OC)c1nc(N)[nH]c(=O)c1Cc1ccc(Br)cc1; 96 % of control

Memo: CCOC(=O)c1cc(=O)ss1 , reported T/C: 94 % of control

Memo: COC(=O)CCCCCC(O)C1CCC2OC(=O)CC21C (centres undefined) , reported T/C: 91 % of control

Memo: OC(CC1(O)C(F)(F)C(F)(F)C1(F)F)c1ccccc1 (centres undefined) , reported T/C: 100 % of control

Memo: Nc1cc(Cl)ccc1N1CCCCC1 , reported T/C: 106 % of control

Memo: NC(Cc1c[nH]c2ccccc12)C(=O)OCc1ccccc1 (centres undefined) , reported T/C: 93 % of control

----------
- Tested on: L1210 leukemia ip in BDF1 mice, survival T/C
- Procedure text: NCI In Vivo Anticancer Drug Screen. Data for tumor model L1210 Leukemia (intraperitoneal) in B6D2F1 (BDF1) mice
- Details: endpoint: mean survival time; dose: 400.0 mg/kg/injection; schedule: Q04DX003 (ip); vehicle: saline sonified; higher = longer survival
Toxic doses and inconclusive results are not listed.
Quantity measured: T/C

Known T/C results, listed for orientation:
CCOC(=O)C(O)c1cccc(OC)c1 (stereo unspecified); 103 % of control
CCSC(C(OC(C)=O)C(OC(C)=O)C(OC(C)=O)C(COC(C)=O)OC(C)=O)n1cnc2c(=S)nc[nH]c21 (stereo unspecified); 91 % of control
O=C1Cc2ccccc2C(=O)N1; 100 % of control
N#CCC(=O)N1Cc2cc3ccccc3nc2C1; 101 % of control
COc1cc2ccc3c(c2cc1OC)C=[N+](C)CC3; 102 % of control

With those in mind, consider the next compound.
Memo: CCN1CCCC(Nc2nc(Nc3cc(Cl)cc(Cl)c3)nc3cc(Cl)ccc23)C1 (stereo unspecified) , reported T/C: 106 % of control

----------
- Test system: L1210 leukemia ip in BDF1 mice, survival T/C
- Procedure text: NCI In Vivo Anticancer Drug Screen. Data for tumor model L1210 Leukemia (intraperitoneal) in B6D2F1 (BDF1) mice
- Details: endpoint: mean survival time; dose: 100.0 mg/kg/injection; schedule: Q01DX009 (ip); vehicle: Klucel (hydroxypropylcellulose) (HPC); higher = longer survival
Toxic doses and inconclusive results are not listed.
Quantity measured: T/C

Known T/C results, listed for orientation:
CCN(CC)c1ccc(NC(=S)Nc2cccc(C(F)(F)F)c2)c(C)c1; 93 % of control
CCOc1ccc(OCC)c2c1C(=O)c1ccccc1C2=O; 97 % of control
[Se]=P(c1ccccc1)(c1ccccc1)c1ccccc1; 103 % of control
Cn1c(=O)c2ccccc2c2cc([N+](=O)[O-])ccc21; 97 % of control
COc1ccc(OC)c(NC(=O)c2ccc(F)cc2)c1; 98 % of control

With those in mind, consider the next compound.
Entry CN(C)c1ccc(/C=C\C(=O)c2ccccc2)cc1 : T/C on L1210 leukemia ip in BDF1 mice, survival T/C = 95 % of control
